Target: ProfilerPro Kinase Selectivity Assay Kit kinases (Homo sapiens, UniProt Q9P0L2)
Format: biochemical
Settings: MARK1; 1 μM compound concentration
MEASURED PROPERTY: POC (Percent of control) MARK1 (POC)
Could you give me the number in POC? Just the number is fine.

-- ask Fill blank: measured POC (Percent of control) MARK1 of the compound "Cc1nc(N)nc(-c2cc(CN3CCN(S(C)(=O)=O)CC3)cnc2Nc2cccc(O)c2)n1" is ____.
-- reply 98

-- ask Returns the measured POC (Percent of control) MARK1 for the input compound. Input: "c1cnc(Nc2cccc3[nH]ncc23)c(-c2ncnc3[nH]cnc23)c1"
-- reply 112

-- ask Param item = "COc1ccc(Nc2ncc(CN3CCN(C(C)=O)CC3)cc2-c2nc(C)nc3[nH]cnc23)cn1" ; retrieve measured POC (Percent of control) MARK1.
-- reply 92

-- ask # input compound: "Cc1cnc(Nc2cccc3[nH]ncc23)c(-c2nc(C)nc(N)n2)c1" ; wanted: its POC (Percent of control) MARK1
-- reply 107

-- ask Need POC (Percent of control) MARK1 of "c1cnc(Nc2cccc3[nH]ccc23)c(-c2ncnc3[nH]cnc23)c1" , thanks.
-- reply 95

-- ask Recorded POC (Percent of control) MARK1 for "Cc1nc(N)nc(-c2cccnc2Nc2cccc(O)c2)n1" , please?
-- reply 97

---

Below, each entry is listed with its recorded POC (Percent of control) PKGa2.
Molecular target: ProfilerPro Kinase Selectivity Assay Kit kinases (Homo sapiens, UniProt Q13976)
Sequence (Q13976 2-671 limits assumed): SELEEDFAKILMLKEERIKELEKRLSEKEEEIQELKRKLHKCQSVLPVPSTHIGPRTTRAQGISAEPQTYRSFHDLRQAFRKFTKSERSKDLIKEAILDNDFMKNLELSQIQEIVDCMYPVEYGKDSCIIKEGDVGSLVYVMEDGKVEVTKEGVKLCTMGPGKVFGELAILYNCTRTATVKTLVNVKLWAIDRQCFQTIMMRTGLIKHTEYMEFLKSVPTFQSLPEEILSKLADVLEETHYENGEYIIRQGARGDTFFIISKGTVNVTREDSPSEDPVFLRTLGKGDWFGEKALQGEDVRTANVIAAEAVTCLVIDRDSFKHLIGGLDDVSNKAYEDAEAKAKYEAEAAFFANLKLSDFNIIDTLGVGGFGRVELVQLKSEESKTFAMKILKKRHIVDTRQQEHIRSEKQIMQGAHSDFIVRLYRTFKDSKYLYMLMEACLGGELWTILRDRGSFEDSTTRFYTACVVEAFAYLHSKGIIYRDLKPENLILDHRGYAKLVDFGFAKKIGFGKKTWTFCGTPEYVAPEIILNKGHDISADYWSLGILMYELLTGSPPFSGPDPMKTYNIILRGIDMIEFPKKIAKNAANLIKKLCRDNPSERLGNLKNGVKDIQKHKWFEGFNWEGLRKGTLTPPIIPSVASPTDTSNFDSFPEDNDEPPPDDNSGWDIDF
Assay type: biochemical
Conditions: PKGa2; 1 μM compound concentration
Report the value in POC with no unit label.

Cc1cnc(Nc2cccc3[nH]ccc23)c(-c2nc(C)nc(N)n2)c1	95
COc1ccc(Nc2ncccc2-c2nc(C)nc3[nH]cnc23)cn1	97
Cc1nc(N)nc(-c2cc(CN3CCN(S(C)(=O)=O)CC3)cnc2Nc2cccc(O)c2)n1	98

-- ask For the compound "COc1ccc(Nc2ncc(Cc3ccc(S(C)(=O)=O)cc3)cc2-c2nc(C)nc3[nH]cnc23)cn1" , what POC (Percent of control) PKGa2 is on record?
-- reply 98

-- ask Would you kindly share the measured POC (Percent of control) PKGa2 for "COc1ccc(Nc2ncc(CN3CCN(C(C)=O)CC3)cc2-c2nc(C)nc3[nH]cnc23)cn1" ?
-- reply 87

---

Entries and their POC (Percent of control) IGF1R values follow.
Biological target: ProfilerPro Kinase Selectivity Assay Kit kinases (Homo sapiens)
Assay type: biochemical
Conditions: IGF1R; 1 μM compound concentration
Numbers only; they are read as POC.

CCc1cnc(Nc2ccc(OC)nc2)c(-c2nc(C)nc3[nH]cnc23)c1	93
Cc1nc(-c2cccnc2Nc2cccc3[nH]ncc23)c2nc[nH]c2n1	77
Cc1nc(N)nc(-c2cccnc2Nc2cccc3[nH]ccc23)n1	97
c1cnc(Nc2cccc3[nH]ccc23)c(-c2ncnc3[nH]cnc23)c1	94
Cc1cnc(Nc2cccc3[nH]ncc23)c(-c2nc(C)nc(N)n2)c1	82
c1cnc(Nc2cccc3[nH]ncc23)c(-c2ncnc3[nH]cnc23)c1	64
COc1ccc(Nc2ncc(Cc3ccc(S(C)(=O)=O)cc3)cc2-c2nc(C)nc3[nH]cnc23)cn1	91
COc1ccc(Nc2ncccc2-c2nc(C)nc3[nH]cnc23)cn1	92

Now consider a different compound.
-- ask Bench note: what POC (Percent of control) IGF1R did "COc1ccc(Nc2ncccc2-c2ncnc3[nH]cnc23)cn1" show?
-- reply 93

---

System: phosphorylation of Akt at Serine 473 in U87 MG cells
Assay: cells
Details: Homo sapiens, U-87 MG, 2 h, read-out: U87Cell IC50, pAkt (Ser 473), U87 MG cells, two hours with compound
Overview of recorded log10 of IC50 for various compounds
All values: log10 IC50 [nM].

COCCOc1cnc(Nc2cnc(C)c(NS(C)(=O)=O)c2)c(-c2nc(C)nc(N)n2)c1 [Example 376]	2.43

Consider the additional compound presented here.
-- ask So what does the record say about log10 of IC50 for COc1ncc(Nc2ncc([C@@H](C)N3CCN(S(C)(=O)=O)CC3)cc2-c2nc(C)nc(N)n2)cc1F [Example 148] ?
-- reply 0.70

---

Target: ProfilerPro Kinase Selectivity Assay Kit kinases (Homo sapiens)
Format: biochemical
Settings: AKT2; 1 μM compound concentration
Listed molecules paired with reported POC (Percent of control) AKT2
Field note: include the unit after the figure.

Some solved cases for reference:
COc1ccc(Nc2ncccc2-c2ncnc3[nH]cnc23)cn1	92 POC
COc1ccc(Nc2ncccc2-c2nc(C)nc3[nH]cnc23)cn1	96 POC
Cc1nc(-c2cccnc2Nc2cccc3[nH]ncc23)c2nc[nH]c2n1	98 POC

Let us examine a further case.
-- ask Given the molecule "CCc1cnc(Nc2ccc(OC)nc2)c(-c2nc(C)nc3[nH]cnc23)c1" , what is its reported POC (Percent of control) AKT2?
-- reply 96 POC

---

Each item that follows carries a reported log10 of IC50.
Test system: phosphorylation of Akt at Serine 473 in U87 MG cells
Assay: cells
Conditions: Homo sapiens, U-87 MG, 2 h, read-out: U87Cell IC50, pAkt (Ser 473), U87 MG cells, two hours with compound
Parameter value (number): base-10 log of IC50 in nM.

Cc1nc(N)cc(-c2cc([C@H](C)N3CCOCC3)cnc2Nc2cnc(Cl)c(NS(=O)(=O)N(C)C)c2)n1	1.36

Note: attention shifts to another entry.
-- ask Which log10 of IC50 value is on record for "COc1ccc(Nc2ncc(CN3CCN(C(=O)N(C)C)CC3)cc2-c2nc(C)nc3[nH]cnc23)cn1" ?
-- reply 2.32

---

Below, each entry is listed with its recorded Ki.
Biological target: PI3Kα (Homo sapiens (Human), UniProt P42336)
Sequence (P42336 whole entry): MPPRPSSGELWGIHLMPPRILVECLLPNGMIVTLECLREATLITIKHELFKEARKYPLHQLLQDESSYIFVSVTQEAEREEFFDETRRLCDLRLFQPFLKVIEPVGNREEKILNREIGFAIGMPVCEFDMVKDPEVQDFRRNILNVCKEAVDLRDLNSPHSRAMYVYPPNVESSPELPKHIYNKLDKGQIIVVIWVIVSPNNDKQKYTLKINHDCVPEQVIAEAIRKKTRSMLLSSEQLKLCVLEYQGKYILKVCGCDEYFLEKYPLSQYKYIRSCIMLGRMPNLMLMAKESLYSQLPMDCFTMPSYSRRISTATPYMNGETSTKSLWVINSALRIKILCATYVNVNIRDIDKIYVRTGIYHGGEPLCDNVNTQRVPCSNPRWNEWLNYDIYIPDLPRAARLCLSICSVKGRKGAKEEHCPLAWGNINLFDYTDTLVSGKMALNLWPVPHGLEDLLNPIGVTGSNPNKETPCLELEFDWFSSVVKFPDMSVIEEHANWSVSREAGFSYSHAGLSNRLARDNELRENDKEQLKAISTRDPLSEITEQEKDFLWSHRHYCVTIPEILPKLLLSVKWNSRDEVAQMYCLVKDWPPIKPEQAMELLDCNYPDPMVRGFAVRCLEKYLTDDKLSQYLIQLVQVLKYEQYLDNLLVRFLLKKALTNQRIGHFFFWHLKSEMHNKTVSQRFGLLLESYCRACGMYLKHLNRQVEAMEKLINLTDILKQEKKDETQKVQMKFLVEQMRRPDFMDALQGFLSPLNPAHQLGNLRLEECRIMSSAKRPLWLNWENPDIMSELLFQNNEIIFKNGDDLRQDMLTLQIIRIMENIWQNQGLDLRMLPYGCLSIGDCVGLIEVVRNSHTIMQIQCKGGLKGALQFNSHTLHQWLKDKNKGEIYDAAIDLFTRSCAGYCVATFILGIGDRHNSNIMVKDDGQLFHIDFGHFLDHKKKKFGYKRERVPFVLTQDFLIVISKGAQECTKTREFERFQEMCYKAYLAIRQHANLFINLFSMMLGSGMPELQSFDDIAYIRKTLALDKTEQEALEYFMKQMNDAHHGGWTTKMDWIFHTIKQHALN
Sequence (P27986 whole entry partner): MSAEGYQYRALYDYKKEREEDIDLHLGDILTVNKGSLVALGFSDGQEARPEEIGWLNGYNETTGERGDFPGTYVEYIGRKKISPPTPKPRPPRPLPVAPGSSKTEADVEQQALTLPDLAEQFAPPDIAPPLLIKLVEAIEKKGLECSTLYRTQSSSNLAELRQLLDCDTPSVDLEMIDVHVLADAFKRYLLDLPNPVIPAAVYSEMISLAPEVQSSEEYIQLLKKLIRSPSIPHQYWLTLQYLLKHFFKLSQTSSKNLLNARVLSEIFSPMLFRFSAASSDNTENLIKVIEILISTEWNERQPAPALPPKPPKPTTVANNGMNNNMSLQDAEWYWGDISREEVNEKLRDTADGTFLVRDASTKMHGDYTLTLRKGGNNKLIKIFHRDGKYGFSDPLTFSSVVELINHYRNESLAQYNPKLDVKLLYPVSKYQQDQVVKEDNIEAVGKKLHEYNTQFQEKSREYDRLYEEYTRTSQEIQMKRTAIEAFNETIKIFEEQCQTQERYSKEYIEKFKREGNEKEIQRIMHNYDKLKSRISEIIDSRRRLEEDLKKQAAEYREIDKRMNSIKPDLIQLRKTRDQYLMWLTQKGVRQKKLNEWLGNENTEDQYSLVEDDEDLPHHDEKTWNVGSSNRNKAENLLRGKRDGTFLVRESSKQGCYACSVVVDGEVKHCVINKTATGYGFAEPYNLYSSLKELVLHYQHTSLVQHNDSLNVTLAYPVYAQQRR
Assay: biochemical
Details: PI3Kα AlphaScreen ® Ki
Field: numeric (nM). Do not append units.

As a guide, the following entries are already answered.
COc1ccc(Nc2ncc([C@H](O)C(C)(C)C)cc2-c2nc(C)nc3c2ncn3C2CCCCO2)cn1 (some centres unmarked) [Example 133]	31
COc1ccc(Nc2ncc([C@@H](O)C(C)(C)C)cc2-c2nc(C)nc3c2ncn3C2CCCCO2)cn1 (some centres unmarked) [Example 132]	12

-- ask Need Ki of COc1ncc(Nc2ncc(C(C)CO)cc2-c2nc(C)nc(N)n2)cc1F (single isomer, unassigned) [312 First eluting] , thanks.
-- reply 9

-- ask # Ki lookup, item COc1ccc(Nc2ncc(CN3CCN(C(=O)N(C)C4CC4)CC3)cc2-c2nc(C)nc(N)n2)cn1 [Example 359]
-- reply 45

-- ask GET /values?readout=Ki&item= COc1ncc(Nc2ncc(C(C)CO)cc2-c2nc(C)nc(N)n2)cc1F (single isomer, unassigned) [312 Second eluting]
-- reply 7

---

Attribute: POC (Percent of control) BTK
Target: ProfilerPro Kinase Selectivity Assay Kit kinases (Homo sapiens)
Format: biochemical
Settings: BTK; 1 μM compound concentration
Report the figure in POC without appending any unit label.

Worked examples, 3 molecules total:
Cc1nc(N)nc(-c2cccnc2Nc2cccc(O)c2)n1 [Example 23]	100
c1cnc(Nc2cccc3[nH]ccc23)c(-c2ncnc3[nH]cnc23)c1 [Example 19]	75
Cc1nc(N)cc(-c2cccnc2Nc2cccc3[nH]ncc23)n1 [Example 27]	99

-- ask Consider the molecule shown here: Cc1nc(-c2cccnc2Nc2cccc3[nH]ncc23)c2nc[nH]c2n1 [Example 57] What is its recorded POC (Percent of control) BTK?
-- reply 98

-- ask I would be grateful if you could share the reported POC (Percent of control) BTK for Cc1nc(N)nc(-c2cccnc2Nc2cccc3[nH]ccc23)n1 [Example 22] .
-- reply 99

-- ask I have this molecule here, Cc1nc(N)nc(-c2cc(CN3CCN(S(C)(=O)=O)CC3)cnc2Nc2cccc(O)c2)n1 [Example 30] , and I need its recorded POC (Percent of control) BTK.
-- reply 97

-- ask What does the data say about its POC (Percent of control) BTK? Entry: COc1ccc(Nc2ncccc2-c2ncnc3[nH]cnc23)cn1 [Example 20]
-- reply 98

-- ask What does the record list as POC (Percent of control) BTK for c1cnc(Nc2cccc3[nH]ncc23)c(-c2ncnc3[nH]cnc23)c1 [Example 18] ?
-- reply 99

-- ask I am curious: what POC (Percent of control) BTK value has been reported for COc1ccc(Nc2ncc(CN3CCN(C(C)=O)CC3)cc2-c2nc(C)nc3[nH]cnc23)cn1 [Example 89] ?
-- reply 102

---

Tested on: phosphorylation of Akt at Serine 473 in U87 MG cells
Assay: cells
Details: Homo sapiens, U-87 MG, 2 h, read-out: U87Cell IC50, pAkt (Ser 473), U87 MG cells, two hours with compound
One threshold, 70 nM, splits the recorded IC50 values: lower ones are class 1, equal or higher ones are class 0.

COc1ccc(Nc2ncc(C(C)c3ccc(S(C)(=O)=O)cc3)cc2-c2nc(C)nc(N)n2)cn1 (centres unmarked)	class 1
COc1ncc(Nc2ncc(C(O)C(C)(C)O)cc2-c2nc(C)nc(N)n2)cc1F (centres unmarked)	class 0
COc1ccc(Nc2ncc(CN3CC(NS(C)(=O)=O)C3)cc2-c2nc(C)nc(N)n2)cn1	class 0
COc1ncc(Nc2ncc(CN3CCOCC3)cc2-c2nc(C)nc(N)n2)cc1NS(C)(=O)=O	class 1
COc1ccc(Nc2ncc(C(C)N3CCN(S(C)(=O)=O)CC3)cc2-c2nc(C)nc(N)n2)cn1 (centres unmarked)	class 1

-- ask Strictly below 70 nM: is that where IC50 of "COc1ccc(Nc2ncc(CN3CCSCC3)cc2-c2nc(C)nc(N)n2)cn1" sits?
-- reply class 1

-- ask Field: below-cutoff. Rule: recorded IC50 strictly less than 70 nM. Subject: "COC(=O)N1CCN(Cc2cnc(Nc3ccc(OC)nc3)c(-c3nc(C)nc4[nH]cnc34)c2)CC1"
-- reply class 1

-- ask Does the reported IC50 of "Cc1nc(N)nc(-c2cc(CN3CCN(S(C)(=O)=O)CC3)cnc2Nc2cn[nH]c2)n1" stay below 70 nM?
-- reply class 0

Reference source: patent US8772480B2
